The listing below reports pKi for compounds tested on 5-hydroxytryptamine receptor 2A (Homo sapiens).
pKi field: float, defined as -log10 of concentration (mol/L).

[[record]]
compound = "NC[C@H]1C[C@@H]1c1ccc(F)cc1 (relative stereo)"
target_entity = "5-hydroxytryptamine receptor 2A (Homo sapiens)"
numeric_readout = 5.56


For the next question, use this compound.
Need pKi of NC[C@H]1C[C@@H]1c1ccc(F)cc1Cl (relative stereo) , thanks.
6.60

----------
Molecular target: 5-hydroxytryptamine receptor 2B (Homo sapiens, UniProt P41595)
Sequence (P41595 whole entry): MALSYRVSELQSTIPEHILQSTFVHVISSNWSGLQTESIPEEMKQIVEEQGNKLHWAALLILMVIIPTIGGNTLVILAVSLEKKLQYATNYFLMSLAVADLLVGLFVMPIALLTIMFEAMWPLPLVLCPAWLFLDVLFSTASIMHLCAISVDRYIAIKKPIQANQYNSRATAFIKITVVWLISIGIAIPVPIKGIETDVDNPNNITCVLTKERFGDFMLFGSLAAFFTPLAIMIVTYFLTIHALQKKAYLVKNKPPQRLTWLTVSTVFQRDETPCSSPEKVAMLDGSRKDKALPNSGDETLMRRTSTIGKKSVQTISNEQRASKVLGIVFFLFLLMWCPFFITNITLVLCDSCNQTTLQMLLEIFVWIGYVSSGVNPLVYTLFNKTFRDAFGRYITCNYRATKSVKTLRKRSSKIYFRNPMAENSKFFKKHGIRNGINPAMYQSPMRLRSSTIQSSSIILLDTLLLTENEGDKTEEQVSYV
Test: Agonist activity at human 5HT2B receptor expressed in HEK293 cells assessed as calcium flux by FLIPR assay
reported_property: EC50 (µM)
Write the number in µM without appending the unit.

Study these solved cases before continuing.
[[record]]
compound = "COc1ccccc1[C@H]1C[C@@H]1CN (relative stereo)"
target_entity = "5-hydroxytryptamine receptor 2B (Homo sapiens, UniProt P41595)"
reported_property = "EC50"
numeric_readout = 0.199

[[record]]
compound = "Cc1cccc([C@H]2C[C@@H]2CN)c1C (relative stereo)"
target_entity = "5-hydroxytryptamine receptor 2B (Homo sapiens, UniProt P41595)"
reported_property = "EC50"
numeric_readout = 0.0084

[[record]]
compound = "NC[C@H]1C[C@@H]1c1cccc(O)c1 (relative stereo)"
target_entity = "5-hydroxytryptamine receptor 2B (Homo sapiens, UniProt P41595)"
reported_property = "EC50"
numeric_readout = 0.0055

[[record]]
compound = "NC[C@H]1C[C@@H]1c1ccccc1C(F)(F)F (relative stereo)"
target_entity = "5-hydroxytryptamine receptor 2B (Homo sapiens, UniProt P41595)"
reported_property = "EC50"
numeric_readout = 0.35


// query EC50 value for entry NC[C@H]1C[C@@H]1c1ccc(F)cc1F
0.415

NC[C@H]1C[C@@H]1c1cccc(Cl)c1Cl (relative stereo) , same question.
0.014

Here is the next compound: Cc1ccc([C@H]2C[C@@H]2CN)cc1C (relative stereo)
0.012

Query NC[C@H]1C[C@@H]1c1ccc2ccccc2c1 (relative stereo) next
0.51

# iterate: NC[C@H]1C[C@@H]1c1ccccc1O (relative stereo)
0.492

----------
Target: 5-hydroxytryptamine receptor 2B (Homo sapiens)
Assay: Agonist activity at human 5HT2B receptor expressed in HEK293 cells assessed as calcium flux by FLIPR assay
Recorded measurements of EC50, one per entry
Numbers only; they are read as nM.

Please review the entries below; each comes with its answer.
[[record]]
molecule = "NC[C@H]1C[C@@H]1c1ccc(Cl)cc1Cl (relative stereo)"
numeric_readout = 83

[[record]]
molecule = "Cc1cccc(Cl)c1[C@H]1C[C@@H]1CN (relative stereo)"
numeric_readout = 7

[[record]]
molecule = "Cc1ccc([C@H]2C[C@@H]2CN)cc1 (relative stereo)"
numeric_readout = 37

[[record]]
molecule = "NC[C@H]1C[C@@H]1c1ccc(Cl)cc1F (relative stereo)"
numeric_readout = 459


With those in mind, consider the next molecule.
# get_value(readout='EC50', item= Cc1ccc([C@H]2C[C@@H]2CN)c(Br)c1 (relative stereo) )
116

----------
Biological target: 5-hydroxytryptamine receptor 2C (Homo sapiens, UniProt P28335)
Sequence (P28335 whole entry): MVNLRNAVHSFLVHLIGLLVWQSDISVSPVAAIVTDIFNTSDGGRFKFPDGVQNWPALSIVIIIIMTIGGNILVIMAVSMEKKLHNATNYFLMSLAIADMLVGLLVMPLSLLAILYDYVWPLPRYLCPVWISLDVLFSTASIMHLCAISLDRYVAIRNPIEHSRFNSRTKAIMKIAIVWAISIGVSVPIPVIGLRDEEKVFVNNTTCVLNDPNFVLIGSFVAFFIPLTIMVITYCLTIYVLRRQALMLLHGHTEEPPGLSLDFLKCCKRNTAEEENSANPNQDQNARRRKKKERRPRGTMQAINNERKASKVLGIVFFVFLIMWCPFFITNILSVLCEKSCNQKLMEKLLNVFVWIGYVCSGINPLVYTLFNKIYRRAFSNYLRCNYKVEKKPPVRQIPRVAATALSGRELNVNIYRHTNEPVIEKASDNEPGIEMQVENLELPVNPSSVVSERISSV
reported_property: pKi
Please note pKi is a logarithmic value: minus log10 of concentration in mol/L. Answer with that number alone.

[[record]]
molecule = "NC[C@H]1C[C@@H]1c1ccc(F)cc1Cl (relative stereo)"
numeric_readout = 6.69


Next molecule, pKi to be filled in.
Record request: pKi value, item NC[C@H]1C[C@@H]1c1ccc(F)cc1 (relative stereo)
6.62

----------
Target: 5-hydroxytryptamine receptor 2A (Homo sapiens, UniProt P28223)
Sequence (P28223 whole entry): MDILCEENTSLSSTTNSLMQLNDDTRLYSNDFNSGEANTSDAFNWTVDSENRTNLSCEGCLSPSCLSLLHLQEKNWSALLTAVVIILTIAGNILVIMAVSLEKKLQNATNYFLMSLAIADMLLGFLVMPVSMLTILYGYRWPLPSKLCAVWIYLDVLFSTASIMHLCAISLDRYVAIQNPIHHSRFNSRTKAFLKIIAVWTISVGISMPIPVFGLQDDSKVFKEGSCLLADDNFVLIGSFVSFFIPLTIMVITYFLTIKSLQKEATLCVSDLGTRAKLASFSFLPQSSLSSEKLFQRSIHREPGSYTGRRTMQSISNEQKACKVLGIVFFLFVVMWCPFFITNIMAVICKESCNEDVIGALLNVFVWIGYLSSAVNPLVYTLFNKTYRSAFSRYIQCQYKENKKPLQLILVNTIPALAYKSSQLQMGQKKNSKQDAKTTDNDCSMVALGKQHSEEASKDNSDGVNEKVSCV
Assay: Agonist activity at human 5HT2A receptor expressed in HEK293 cells assessed as calcium flux by FLIPR assay
pEC50: −log10 of the molar value.
Decide by pEC50: equal to or exceeding 6 means y, less means n.

Say whether NC[C@H]1C[C@@H]1c1cccc(O)c1 (relative stereo) shows pEC50 of 6 or more.
y

Param item: NC[C@H]1C[C@@H]1c1ccc(Cl)cc1 (relative stereo)
n

Then what about the compound NC[C@H]1C[C@@H]1c1cccc(Cl)c1 (relative stereo) ?
n

Also check NC[C@H]1C[C@@H]1c1ccc(Br)cc1 (relative stereo)
n

Next compound up: NC[C@H]1C[C@@H]1c1cccc(F)c1 (relative stereo)
y

----------
Molecular target: UniProt P23975
Sequence (P23975 whole entry): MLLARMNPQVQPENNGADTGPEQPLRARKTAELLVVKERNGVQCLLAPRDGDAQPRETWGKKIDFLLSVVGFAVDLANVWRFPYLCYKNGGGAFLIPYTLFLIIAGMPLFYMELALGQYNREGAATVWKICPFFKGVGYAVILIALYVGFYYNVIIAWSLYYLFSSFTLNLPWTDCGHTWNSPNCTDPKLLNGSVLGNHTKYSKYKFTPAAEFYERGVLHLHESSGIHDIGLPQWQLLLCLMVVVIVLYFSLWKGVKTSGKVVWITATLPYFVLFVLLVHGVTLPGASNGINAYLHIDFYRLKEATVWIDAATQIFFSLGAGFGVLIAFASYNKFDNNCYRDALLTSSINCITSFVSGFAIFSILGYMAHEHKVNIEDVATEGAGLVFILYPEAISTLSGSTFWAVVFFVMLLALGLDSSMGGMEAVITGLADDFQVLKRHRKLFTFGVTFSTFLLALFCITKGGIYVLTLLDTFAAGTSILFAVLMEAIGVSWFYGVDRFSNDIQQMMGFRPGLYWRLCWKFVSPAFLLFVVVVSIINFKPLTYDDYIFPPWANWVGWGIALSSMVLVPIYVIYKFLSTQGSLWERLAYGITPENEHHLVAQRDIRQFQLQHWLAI
reported_property: pKi
Keep in mind that pKi stands for -log10 of concentration in molar terms.

For the compound NC[C@H]1C[C@@H]1c1ccc(F)cc1 (relative stereo) , what pKi is on record?
5.17

----------
Target: 5-hydroxytryptamine receptor 2A (Homo sapiens)
Test: Agonist activity at human 5HT2A receptor expressed in HEK293 cells assessed as calcium flux by FLIPR assay
reported_property: pEC50
Entry type: numeric. Quantity: pEC50, the -log10 of concentration in molar units.

[[record]]
molecule = "NC[C@H]1C[C@@H]1c1ccc(Cl)cc1Cl (relative stereo)"
numeric_readout = 7.29

[[record]]
molecule = "NC[C@H]1C[C@@H]1c1cccc(Br)c1 (relative stereo)"
numeric_readout = 5.77

[[record]]
molecule = "COc1cccc([C@H]2C[C@@H]2CN)c1 (relative stereo)"
numeric_readout = 6.21

[[record]]
molecule = "NC[C@H]1C[C@@H]1c1ccccc1Cl (relative stereo)"
numeric_readout = 6.77

[[record]]
molecule = "NC[C@H]1C[C@@H]1c1ccc(F)cc1F"
numeric_readout = 6.26


Form field - read-out: pEC50; system: 5-hydroxytryptamine receptor 2A (Homo sapiens); submitted item: Cc1ccc([C@H]2C[C@@H]2CN)c(Br)c1 (relative stereo)
6.33

// same read-out, input: Cc1cccc(Cl)c1[C@H]1C[C@@H]1CN (relative stereo)
6.14

Continue with Cc1ccccc1[C@H]1C[C@@H]1CN (relative stereo)
5.79

What do you have for NC[C@H]1C[C@@H]1c1ccccc1O (relative stereo) ?
6.29

Follow-up entry: NC[C@H]1C[C@@H]1c1ccc(F)cc1Cl (relative stereo)
7.04

----------
Catalogue of compounds with associated Ki
Molecular target: 5-hydroxytryptamine receptor 2B (Homo sapiens, UniProt P41595)
Number only, in µM; omit the unit.

Previously resolved entries follow.
[[record]]
compound = "NC[C@H]1C[C@@H]1c1ccc(F)cc1 (relative stereo)"
reported_property = "Ki"
scale_unit = "µM"
numeric_readout = 0.089

[[record]]
compound = "Cc1cccc([C@H]2C[C@@H]2CN)c1 (relative stereo)"
reported_property = "Ki"
scale_unit = "µM"
numeric_readout = 0.085


Consider the additional compound presented here.
Could you tell me which Ki is on file for NC[C@H]1C[C@@H]1c1ccc(F)cc1Cl (relative stereo) ?
0.016

----------
Biological target: 5-hydroxytryptamine receptor 2B (Homo sapiens, UniProt P41595)
Assay: Agonist activity at human 5HT2B receptor expressed in HEK293 cells assessed as calcium flux by FLIPR assay
pEC50: −log10 of the molar value.
Use 7 as the dividing line for pEC50, with the line itself on the condition met side and lower values as condition not met.

Exam item: decide whether the reported pEC50 for NC[C@H]1C[C@@H]1c1ccc(F)c(F)c1 (relative stereo) is at least 7.
condition met

// repeat for NC[C@H]1C[C@@H]1c1ccc(Br)cc1 (relative stereo) and report
condition not met

Here is the next compound: NC[C@H]1C[C@@H]1c1ccc(F)cc1 (relative stereo)
condition met

----------
Target: 5-hydroxytryptamine receptor 2C (Homo sapiens, UniProt P28335)
Assay: Agonist activity at human 5HT2C receptor expressed in HEK293 cells assessed as calcium flux by FLIPR assay
reported_property: log10 of EC50 (log10 of the value in nM)
Please keep in mind that the values are log10 of EC50 expressed in nM.

Answered cases to consult:
[[record]]
compound = "NC[C@H]1C[C@@H]1c1cccc(F)c1F (relative stereo)"
reported_property = "log10 of EC50"
numeric_readout = 2.00

[[record]]
compound = "NC[C@H]1C[C@@H]1c1c(F)cccc1F (relative stereo)"
reported_property = "log10 of EC50"
numeric_readout = 1.94


Entry NC[C@H]1C[C@@H]1c1cccc(C(F)(F)F)c1 (relative stereo) : reported log10 of EC50 = ?
1.48

What would you report for COc1ccccc1[C@H]1C[C@@H]1CN (relative stereo) ?
1.41

Subsequent entry: NC[C@H]1C[C@@H]1c1ccc(C(F)(F)F)cc1 (relative stereo)
2.89

Then NC[C@H]1C[C@@H]1c1ccccc1C(F)(F)F (relative stereo) ?
1.69

// repeat for Cc1cccc([C@H]2C[C@@H]2CN)c1C (relative stereo) and report
0.85

What about NC[C@H]1C[C@@H]1c1cccc(F)c1 (relative stereo) ?
0.52

Queued: NC[C@H]1C[C@@H]1c1ccc(F)c(F)c1 (relative stereo)
0.95

Next compound up: NC[C@H]1C[C@@H]1c1ccc2ccccc2c1 (relative stereo)
3.46
